# test details: Cmax in Sprague-Dawley rat at 10 mg/kg, po by LC-MS/MS analysis
# Assay type: ADME, organism-based
# condition context: in vivo
property measured: Cmax (ng/mL)
Supply the numeric figure in ng/mL, leaving out any unit text.

Exercise: Recorded Cmax of "O=C(Nc1cc(C(F)(F)F)cc(C(F)(F)F)c1)N[C@@H](Cc1ccccc1)Cn1c[n+](Cc2ccc3ccccc3c2)c2ccccc21.[Br-]" , please.
Solution: 770

====

# experimental target: Mitogen-activated protein kinase 1 (Homo sapiens, UniProt P28482)
# Sequence (P28482 whole entry): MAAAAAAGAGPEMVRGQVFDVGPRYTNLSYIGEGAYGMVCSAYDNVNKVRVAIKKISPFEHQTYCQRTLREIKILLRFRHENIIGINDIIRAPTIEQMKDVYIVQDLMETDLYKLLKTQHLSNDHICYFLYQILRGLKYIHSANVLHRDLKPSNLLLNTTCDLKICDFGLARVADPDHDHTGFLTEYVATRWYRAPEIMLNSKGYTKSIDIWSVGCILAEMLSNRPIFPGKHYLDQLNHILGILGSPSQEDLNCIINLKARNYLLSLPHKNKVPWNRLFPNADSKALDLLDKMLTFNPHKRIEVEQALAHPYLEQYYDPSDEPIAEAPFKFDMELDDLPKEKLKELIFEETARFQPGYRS
# test details: Inhibition of ERK2 (unknown origin) incubated for 60 mins by luminescence based ADP-Glo kinase assay
property measured: IC50 (nM)
Supply the numeric figure in nM, leaving out any unit text.

Exercise: Recorded IC50 of "O=C(Nc1ccc(Cl)c(C(F)(F)F)c1)N[C@@H](Cc1ccccc1)Cn1c[n+](Cc2ccc3ccccc3c2)c2ccccc21" , please.
Solution: 244

Exercise: Recorded IC50 of "Cc1cc(C)cc(NC(=O)N[C@@H](Cc2ccccc2)Cn2c[n+](Cc3ccc4ccccc4c3)c3ccccc32)c1" , please.
Solution: 327

Exercise: Recorded IC50 of "O=C(Nc1ccc(F)cc1)N[C@@H](Cc1ccccc1)Cn1c[n+](Cc2ccc3ccccc3c2)c2ccccc21" , please.
Solution: 394

Exercise: Recorded IC50 of "O=C(Nc1cc(C(F)(F)F)cc(C(F)(F)F)c1)N[C@@H](Cc1ccccc1)Cn1c[n+](Cc2ccc(C(F)(F)F)cc2)c2ccccc21" , please.
Solution: 223
